Numbers sourced from paper PMC9967118.

study-system: Human DPP3 variant R669A (Homo sapiens, UniProt Q9NY33, R669A)
Construct: made in house; host or cells: E. coli
Sequence (Q9NY33 whole entry R669A): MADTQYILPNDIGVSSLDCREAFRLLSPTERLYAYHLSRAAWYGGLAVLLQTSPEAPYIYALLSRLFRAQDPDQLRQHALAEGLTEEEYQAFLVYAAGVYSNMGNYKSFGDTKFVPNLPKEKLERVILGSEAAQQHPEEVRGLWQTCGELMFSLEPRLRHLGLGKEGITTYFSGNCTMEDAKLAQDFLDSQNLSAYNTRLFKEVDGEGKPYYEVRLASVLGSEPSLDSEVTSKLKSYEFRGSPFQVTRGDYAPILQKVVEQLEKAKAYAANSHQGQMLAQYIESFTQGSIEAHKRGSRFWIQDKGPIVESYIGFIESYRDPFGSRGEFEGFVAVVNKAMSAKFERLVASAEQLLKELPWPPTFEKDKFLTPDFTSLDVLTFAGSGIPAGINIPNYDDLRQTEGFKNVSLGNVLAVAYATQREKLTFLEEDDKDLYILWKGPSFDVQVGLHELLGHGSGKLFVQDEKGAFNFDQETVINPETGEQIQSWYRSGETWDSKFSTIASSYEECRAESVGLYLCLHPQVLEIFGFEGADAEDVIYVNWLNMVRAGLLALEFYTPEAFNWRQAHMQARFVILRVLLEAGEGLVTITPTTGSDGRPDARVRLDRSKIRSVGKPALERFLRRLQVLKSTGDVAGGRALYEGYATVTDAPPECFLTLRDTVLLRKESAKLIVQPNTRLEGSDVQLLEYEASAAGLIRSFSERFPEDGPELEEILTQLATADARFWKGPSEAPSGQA
measurement-notes: Inhibition of DPP III catalyzed hydrolysis of Arg2-2NA, R669A variant
Format: biochemical
pKi: −log10 of the molar value. Where no end group is shown, it is not given here.

{"substance": "VVYPWTQ [valorphin]", "pKi": 5.92}

* * *

study-system: Human DPP3 wild-type (WT) (Homo sapiens, UniProt Q9NY33)
Construct: made in house; host or cells: E. coli
Sequence (Q9NY33 whole entry): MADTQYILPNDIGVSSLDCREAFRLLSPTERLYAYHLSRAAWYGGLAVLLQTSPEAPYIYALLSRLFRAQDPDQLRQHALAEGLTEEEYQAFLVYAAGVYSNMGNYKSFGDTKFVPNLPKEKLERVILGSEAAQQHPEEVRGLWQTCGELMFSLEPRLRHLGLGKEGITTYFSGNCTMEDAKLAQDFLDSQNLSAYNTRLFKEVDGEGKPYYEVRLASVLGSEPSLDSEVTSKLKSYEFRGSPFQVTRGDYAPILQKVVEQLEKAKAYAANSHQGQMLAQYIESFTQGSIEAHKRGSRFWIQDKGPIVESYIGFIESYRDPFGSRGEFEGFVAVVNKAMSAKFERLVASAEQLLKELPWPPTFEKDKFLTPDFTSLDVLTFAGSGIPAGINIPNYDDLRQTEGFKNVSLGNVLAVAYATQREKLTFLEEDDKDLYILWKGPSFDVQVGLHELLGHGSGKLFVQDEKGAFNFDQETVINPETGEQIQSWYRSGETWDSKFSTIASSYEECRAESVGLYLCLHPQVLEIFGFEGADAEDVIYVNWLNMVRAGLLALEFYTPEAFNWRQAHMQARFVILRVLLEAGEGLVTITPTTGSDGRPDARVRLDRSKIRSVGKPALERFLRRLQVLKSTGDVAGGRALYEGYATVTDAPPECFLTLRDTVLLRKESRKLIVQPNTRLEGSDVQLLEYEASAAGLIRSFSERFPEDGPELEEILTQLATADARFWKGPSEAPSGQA
measurement-notes: Inhibition of DPP III catalyzed hydrolysis of Arg2-2NA, wild-type enzyme
Type: biochemical
value-type: Ki (µM)

{"sample-smiles": "CC(C)C[C@H](NC(=O)[C@H](Cc1ccccc1)NC(=O)CNC(=O)CNC(=O)[C@@H](N)Cc1ccc(O)cc1)C(=O)O", "value-type": "Ki", "numeric-result": 10.4}
